These entries and their values trace back to paper PMC8271864.

Let's look at some molecules and their measured inhibition at 1000 µM.
- target_of_assay: Xanthine oxidase (XOD) (Bos taurus, UniProt P80457)
- Construct: gene XDH; commercial XOD immobilized on polydopamine-modified hollow fiber (XOD@PDA@HF)
- Sequence (P80457 2-1332): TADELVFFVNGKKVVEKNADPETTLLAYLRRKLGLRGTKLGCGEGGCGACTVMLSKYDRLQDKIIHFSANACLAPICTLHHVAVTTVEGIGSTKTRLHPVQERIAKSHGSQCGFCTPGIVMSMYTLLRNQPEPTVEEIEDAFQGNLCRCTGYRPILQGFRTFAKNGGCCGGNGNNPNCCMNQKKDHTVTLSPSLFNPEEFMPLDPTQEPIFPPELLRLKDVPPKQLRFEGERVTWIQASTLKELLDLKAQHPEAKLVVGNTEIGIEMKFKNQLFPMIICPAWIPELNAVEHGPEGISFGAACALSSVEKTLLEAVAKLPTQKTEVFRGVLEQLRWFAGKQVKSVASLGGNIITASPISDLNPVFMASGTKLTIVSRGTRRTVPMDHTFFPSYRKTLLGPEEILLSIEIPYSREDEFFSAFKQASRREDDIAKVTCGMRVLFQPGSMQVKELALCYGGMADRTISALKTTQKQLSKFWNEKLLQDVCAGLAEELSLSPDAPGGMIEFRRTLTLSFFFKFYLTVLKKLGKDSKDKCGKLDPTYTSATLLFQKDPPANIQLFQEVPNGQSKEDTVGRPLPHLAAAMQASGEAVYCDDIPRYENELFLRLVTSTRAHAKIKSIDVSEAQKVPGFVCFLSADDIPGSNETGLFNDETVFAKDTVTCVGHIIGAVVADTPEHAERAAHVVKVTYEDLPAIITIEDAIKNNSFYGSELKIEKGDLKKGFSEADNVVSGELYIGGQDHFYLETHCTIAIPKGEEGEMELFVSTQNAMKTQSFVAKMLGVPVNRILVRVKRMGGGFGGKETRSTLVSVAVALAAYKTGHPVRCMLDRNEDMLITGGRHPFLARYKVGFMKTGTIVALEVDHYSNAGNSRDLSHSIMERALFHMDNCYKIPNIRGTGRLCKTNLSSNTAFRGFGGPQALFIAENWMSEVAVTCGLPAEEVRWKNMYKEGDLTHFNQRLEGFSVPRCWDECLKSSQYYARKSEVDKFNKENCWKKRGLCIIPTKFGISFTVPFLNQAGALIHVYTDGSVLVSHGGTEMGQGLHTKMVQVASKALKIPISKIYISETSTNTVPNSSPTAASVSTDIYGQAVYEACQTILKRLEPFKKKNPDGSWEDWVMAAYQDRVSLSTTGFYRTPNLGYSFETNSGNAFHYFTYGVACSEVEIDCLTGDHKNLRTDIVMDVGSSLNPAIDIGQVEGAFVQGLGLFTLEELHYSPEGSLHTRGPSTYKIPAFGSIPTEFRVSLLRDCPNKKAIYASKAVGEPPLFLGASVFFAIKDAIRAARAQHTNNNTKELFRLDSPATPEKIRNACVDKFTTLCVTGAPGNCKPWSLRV
- experiment_summary: immobilized enzyme inhibition at […], hypoxanthine substrate, HPLC detection of uric acid
- Type: biochemical

| molecule | assay_result |
| --- | --- |
| O=c1c(-c2ccc(O)cc2)coc2c([C@@H]3O[C@H](CO)[C@@H](O)[C@H](O)[C@H]3O)c(O)ccc12 | 61.1% |

Name the recorded inhibition at 1000 µM for Oc1cc(O)c2c(c1)O[C@H](c1cc(O)c(O)c(O)c1)[C@H](O)C2 [Epigallocatechin] .
54.9%

Name the recorded inhibition at 1000 µM for O=c1c(O)c(-c2ccc(O)c(O)c2)oc2cc(O)cc(O)c12 .
79.9%

Name the recorded inhibition at 1000 µM for O=c1cc(-c2ccc(O)cc2)oc2cc(O)cc(O)c12 .
81%
